Data origin: paper PMC2697958

# tested_on: Aurora kinase-1 (TbAUK1) (Trypanosoma brucei, UniProt Q384J7)
value_type: pIC50
Quick note: pIC50 values are minus log10 of concentrations in mol/L.

Task item: What does the record list as pIC50 for CCS(=O)(=O)Nc1ccc2c(c1)/C(=C(/Nc1ccc(CN3CCCCC3)cc1)c1ccccc1)C(=O)N2 ?
Reply: 7.40
